Measurement notes: label from the status in PepcDB records
Quantity: protein production

1) MLGTSFNNFGISLSHKRYFSGKVDEIIRCTMGKRIVKISSTKINTSILSSVSEQIGENITDWKNDEKKVYVSRVVNQCIDKFCAEHSRKIGDNLRKQIFKQVEKDYRISLDINAAQSSINHLVSGSSYFKKKMDELCEGMNRSVKNDTTSNVANLISDQFFEKNVQYIDLKKLRGNMSDYITNLESPFLEHHHHHH
failed
2) LKVMLRPILPEDEPKHLAFDNSLSDEDRYKRYFGVRSKMTHEEMAVLTQIDYAREMAFIATAKGPDGDDITLGAVRASIDPDNTEAEFAMAVRGDHQGIGLGKLLLEKLIKYYQANDTPVLTGFTMFENRNMASLAKNLGFKVTFDME
failed
3) MIRVASLIKAMSDTQLQIAQGASPLTGLPGNSAIEQEIKRRLNSGNAFGMIYADLNQFKAFNDTYGFQYGDSIIKLLGKILMQDSLKADDLAFVGHVGGDDFIILTTQNVTKTLGETILLSFQEQLSAMQGAQDLSLALAGLIIYPHTAWTPATLSERIAAVKREAKKAHCNYFLLRELEHHHHHH
failed
4) MNFDLYMNGVVEQARNEIESAGYEQLTTAEDVDKVLKQDGTTLVMINSVCGCAGGIARPAASHALHYDVLPDRLVTVFAGQDKEATQRAREYFEGYAPSSPSFALVKDGKITEMIERHQIEGHDVMNVINQLQTLFNKYC
not failed
5) MQDLTSAAAYYHQSMMMTTAKQNQPELPEQEQLKCPRCDSPNTKFCYYNNYNLSQPRHFCKNCRRYWTKGGALRNIPVGGGTRKSNKRSGSSPSSNLKNQTVAEKPDHHGSGSEEKEERVSGQEMNPTRMLYGLPVGDPNGASFSSLLASNMQMGGLVYESGSRWLPGMDLGLGSVRRSDDTWTDLAMNRMEKN
failed
6) MKFEKRQVYYVVITFAICYAIQAYWGAVSNILTTLHKAIFPFLMGAGIAYIINIVMSVYERLYIKLFKGSRLLMAIKRSVSMILSYATFIGLIVWLFSIVIPDLISSLSSLLVIDTGALAKLVNNLNENKQISEVLNYMGTDKDLVSTLSGYSQQILKQVLSVLTNLLTSVSSIAATLLNVFVSFIFSIYVLANKEQLGRQFNLLIDTYLGSTGKTFHYVRHILHQRFHGFFVSQTLEAMILGSLTVIGMLIFQFPYALTVGVLVAFTALIPVVGAYIGVTIGFILIATESLTEAFLFVLFLILLQQFEGNVIYPKVVGGSIGLPSMWVLMAITIGGALWGILGMLLAVPVAATIYQIVKDHIIKRQTLRNCARTYR
failed
7) MLELFLKEEWTTEAKEILRPFGQKKLIGIQMGASNRSRQWFVERWIELAKRIIERDEEVVIVFVGSKNELEEISLVAQALPQDRVFISAGRLSLGAAAALIGELGLLFTPDTGPLHIAVALRVKTISLFAVANPKNSLPDYDQSLHRYIKVDRCCEPCVGKRCAYQKCMEAIGVDEVYEEYKKLQELEHHHHHH
not failed

----------
Measurement notes: label from the status in PepcDB records
Quantity: protein production

1) MKAANSGRTAAALECFERVVKLQSTPVNWSYLAFCVARERQQFEHATRLCEEAVRREPRSSVLYLNLGKVYLLSGRKDDAIRTFRQGLLYERNTLIESELRRLGLRKPPVLNFLAREHPVNKYLGIMLKKLKIRLEHHHHHH
failed
2) MKRPELIIFDWDGTLFDSVGQIVASLRFAADQFNQPLTDEAAQSIIGLGLPEVMQALFPQVPHLHQEILVHYGEHYVENSKHDAWFEGVAELLHDLKAQGIKLAVATGKSRRGLDRVLNKTQSHELFDITRAASETMSKPHPRMLEEILQVTQVEAQHAIMVGDSSYDLEMAKNIDMPRVGVSYGVHEVDVLQRYEPLTIVDSIAELHHYLTQLLQEKIHA
failed
3) ERLETAQDLLELEGITPELAAKLAERQVHTRDDLAELSTDELAEIAGLQEEEASDLIMRARAHWFDEE
failed
